Biological target: SARS-CoV-2 spike ectodomain (S-ecto), Wuhan-hu-1, 2P (SARS-CoV-2, Wuhan-hu-1, UniProt P0DTC2, 2P mutation at residues 986 and 987, biotinylated (EZ-link NHS-sulfo-LC-Biotin) for the BLI assay)
Assay: BLI
Settings: both partners purified
pKd: −log10 of the molar value.
Use 8 as the dividing line for pKd, with the line itself on the Condition met side and lower values as Condition not met.

Determine whether measured pKd meets or exceeds 8 for humanized SW186 H3L4 (antibody, V domains shown) VH: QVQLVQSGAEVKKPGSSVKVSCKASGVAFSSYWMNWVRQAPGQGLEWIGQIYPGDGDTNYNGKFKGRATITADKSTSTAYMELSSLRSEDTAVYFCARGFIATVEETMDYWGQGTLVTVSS VL: DIQMTQSPSSLSASVGDRVTITCRASQDISNYLNWYQQKPGKTVKLLIYYTSRLHSGVPSRFSGSGSGTDYTLTISSLQPEDFATYFCQQSHTLPWTFGGGTKLEIK
Condition met

Determine whether measured pKd meets or exceeds 8 for humanized SW186 H4L1 (antibody, V domains shown) VH: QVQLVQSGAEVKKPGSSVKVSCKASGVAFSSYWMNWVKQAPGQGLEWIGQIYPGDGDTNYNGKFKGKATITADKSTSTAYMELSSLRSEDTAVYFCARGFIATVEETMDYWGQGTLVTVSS VL: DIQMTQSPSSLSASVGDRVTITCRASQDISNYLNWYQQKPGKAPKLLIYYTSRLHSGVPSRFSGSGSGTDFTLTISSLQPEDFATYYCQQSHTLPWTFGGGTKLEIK
Condition met

Determine whether measured pKd meets or exceeds 8 for humanized SW186 H2L1 (antibody, V domains shown) VH: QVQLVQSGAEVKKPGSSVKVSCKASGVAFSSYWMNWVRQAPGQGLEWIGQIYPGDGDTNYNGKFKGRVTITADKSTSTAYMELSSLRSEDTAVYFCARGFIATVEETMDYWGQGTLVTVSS VL: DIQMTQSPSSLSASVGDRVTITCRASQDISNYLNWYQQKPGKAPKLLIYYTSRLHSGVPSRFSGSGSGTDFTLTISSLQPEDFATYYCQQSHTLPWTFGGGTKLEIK
Condition not met

Determine whether measured pKd meets or exceeds 8 for humanized SW186 H1L2 (antibody, V domains shown) VH: QVQLVQSGAEVKKPGSSVKVSCKASGVAFSSYWMNWVRQAPGQGLEWMGQIYPGDGDTNYNGKFKGRVTITADKSTSTAYMELSSLRSEDTAVYYCARGFIATVEETMDYWGQGTLVTVSS VL: DIQMTQSPSSLSASVGDRVTITCRASQDISNYLNWYQQKPGKAPKLLIYYTSRLHSGVPSRFSGSGSGTDFTLTISSLQPEDFATYFCQQSHTLPWTFGGGTKLEIK
Condition not met
